Taken from patent US20250214991A1.

assayed_target: IKZF1 (Homo sapiens (Human), UniProt Q13422+Q96SW2)
Sequence (Q13422 whole entry): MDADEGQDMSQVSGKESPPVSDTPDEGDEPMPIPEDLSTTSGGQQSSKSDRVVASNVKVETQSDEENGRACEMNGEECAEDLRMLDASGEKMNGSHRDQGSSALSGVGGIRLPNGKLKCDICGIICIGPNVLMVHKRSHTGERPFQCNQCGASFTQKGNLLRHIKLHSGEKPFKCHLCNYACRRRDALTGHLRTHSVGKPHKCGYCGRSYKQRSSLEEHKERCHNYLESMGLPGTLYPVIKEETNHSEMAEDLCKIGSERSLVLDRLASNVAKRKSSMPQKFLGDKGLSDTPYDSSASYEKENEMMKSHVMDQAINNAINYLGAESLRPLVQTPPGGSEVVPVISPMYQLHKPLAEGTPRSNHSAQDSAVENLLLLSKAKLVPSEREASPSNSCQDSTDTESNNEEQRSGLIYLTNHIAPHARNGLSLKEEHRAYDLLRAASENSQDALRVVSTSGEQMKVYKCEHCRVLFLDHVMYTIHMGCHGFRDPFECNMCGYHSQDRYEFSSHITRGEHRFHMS
Sequence (Q96SW2 whole entry): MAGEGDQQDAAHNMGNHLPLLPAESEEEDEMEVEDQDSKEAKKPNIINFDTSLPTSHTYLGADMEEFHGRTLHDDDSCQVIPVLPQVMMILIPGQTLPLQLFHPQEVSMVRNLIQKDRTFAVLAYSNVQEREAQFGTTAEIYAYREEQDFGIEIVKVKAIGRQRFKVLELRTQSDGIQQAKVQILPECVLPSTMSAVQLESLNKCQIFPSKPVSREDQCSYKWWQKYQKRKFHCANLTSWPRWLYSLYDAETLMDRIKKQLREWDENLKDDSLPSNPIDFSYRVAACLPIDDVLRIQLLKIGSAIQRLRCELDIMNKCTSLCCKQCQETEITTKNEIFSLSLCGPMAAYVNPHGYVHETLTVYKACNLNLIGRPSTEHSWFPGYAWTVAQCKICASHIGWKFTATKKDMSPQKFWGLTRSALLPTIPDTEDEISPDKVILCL
Sequence (Q16531 2-1140 partner): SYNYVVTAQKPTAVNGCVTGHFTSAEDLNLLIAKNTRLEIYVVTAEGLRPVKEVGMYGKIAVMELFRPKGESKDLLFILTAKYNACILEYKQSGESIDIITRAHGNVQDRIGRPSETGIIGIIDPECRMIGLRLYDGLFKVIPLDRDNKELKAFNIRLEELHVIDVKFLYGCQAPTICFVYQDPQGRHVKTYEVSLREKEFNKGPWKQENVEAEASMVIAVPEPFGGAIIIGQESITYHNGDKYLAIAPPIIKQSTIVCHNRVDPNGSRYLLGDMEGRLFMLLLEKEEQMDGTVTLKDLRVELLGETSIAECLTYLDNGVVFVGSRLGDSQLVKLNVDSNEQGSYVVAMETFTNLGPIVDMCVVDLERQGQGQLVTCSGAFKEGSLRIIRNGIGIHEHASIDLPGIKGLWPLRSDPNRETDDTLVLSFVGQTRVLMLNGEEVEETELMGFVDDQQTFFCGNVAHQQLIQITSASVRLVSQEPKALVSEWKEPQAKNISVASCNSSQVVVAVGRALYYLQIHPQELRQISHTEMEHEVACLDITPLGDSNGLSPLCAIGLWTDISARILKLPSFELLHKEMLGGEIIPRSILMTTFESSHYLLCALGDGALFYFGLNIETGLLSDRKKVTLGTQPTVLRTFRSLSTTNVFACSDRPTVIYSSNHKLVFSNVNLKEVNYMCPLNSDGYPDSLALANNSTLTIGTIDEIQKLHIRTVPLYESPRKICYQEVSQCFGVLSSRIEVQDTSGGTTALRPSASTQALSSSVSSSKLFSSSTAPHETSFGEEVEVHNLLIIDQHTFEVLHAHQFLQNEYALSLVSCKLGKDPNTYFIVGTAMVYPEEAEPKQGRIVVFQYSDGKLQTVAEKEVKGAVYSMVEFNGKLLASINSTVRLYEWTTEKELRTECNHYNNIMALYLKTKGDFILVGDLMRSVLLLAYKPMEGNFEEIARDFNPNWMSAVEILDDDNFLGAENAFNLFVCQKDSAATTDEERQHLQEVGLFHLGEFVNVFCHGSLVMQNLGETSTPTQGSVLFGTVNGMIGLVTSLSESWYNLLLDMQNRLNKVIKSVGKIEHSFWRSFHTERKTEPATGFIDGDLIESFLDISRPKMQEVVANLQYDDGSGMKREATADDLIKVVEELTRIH
protocol_summary: In vitro IKZF1 HiBit Assay (HEK293T Flp-in-HiBiT-IKZF1 stable cell line)
Assay type: cell-based
condition_context: HEK-293T; HEK293T Flp-in-HiBiT-IKZF1 stable cell line, 6 hrs incubation; read-out: IKZF1 HiBit Dmax (%)
measured_attribute: Dmax

Provide value of Dmax for this record tested with IKZF1 (Homo sapiens (Human), UniProt Q13422+Q96SW2): CN(C)C(=O)CC1CCN(Cc2cc(-c3ccc4c(c3)CN(C3CCC(=O)NC3=O)C4=O)nc3[nH]ccc23)C1 (centres unmarked) 20 to 40%

Lab request: please report Dmax under test system IKZF1 (Homo sapiens (Human), UniProt Q13422+Q96SW2) for CCn1ccc2c(CN3CCC3)cc(-c3ccc4c(c3)CN(C3CCC(=O)NC3=O)C4=O)nc21 (centres unmarked) < 20%

Enter reported Dmax observed with IKZF1 (Homo sapiens (Human), UniProt Q13422+Q96SW2) for CC#CCn1ccc2c(CN3CCCC3)cc(-c3ccc4c(c3)CN(C3CCC(=O)NC3=O)C4=O)nc21 (centres unmarked) < 20%

Record Cn1ccc2c(CN3CC(O)C3)cc(-c3ccc4c(c3)CN(C3CCC(=O)NC3=O)C4=O)nc21 (centres unmarked) : what is its Dmax with IKZF1 (Homo sapiens (Human), UniProt Q13422+Q96SW2)? 20 to 40%

Tell me reported Dmax for Cn1ccc2c(CN3CCN4CCCC4C3)cc(-c3ccc4c(c3)CN(C3CCC(=O)NC3=O)C4=O)nc21 (centres unmarked) , tested with IKZF1 (Homo sapiens (Human), UniProt Q13422+Q96SW2). < 20%

Lab note: need Dmax with IKZF1 (Homo sapiens (Human), UniProt Q13422+Q96SW2) for entry O=C1CC[C@H](N2Cc3cc(-c4cc(CN5CCCC5)c5ccn(-c6cn[nH]c6)c5n4)ccc3C2=O)C(=O)N1 , please look it up. 20 to 40%

Query for IKZF1 (Homo sapiens (Human), UniProt Q13422+Q96SW2): what Dmax does the record show for COc1cc2c(cc1-c1cc(CN3CCCC3)cc3cncn13)CN(C1CCC(=O)NC1=O)C2=O (centres unmarked) ? < 20%

Missing value: Dmax, IKZF1 (Homo sapiens (Human), UniProt Q13422+Q96SW2), entry Cn1ccc2c(CN3CCC(F)C3)cc(-c3ccc4c(c3)CN(C3CCC(=O)NC3=O)C4=O)nc21 (centres unmarked) . Fill in? < 20%

Any idea what Dmax came out for Cn1cc(-n2ccc3c(CN4CCCC4)cc(-c4ccc5c(c4)CN(C4CCC(=O)NC4=O)C5=O)nc32)cn1 (centres unmarked) on IKZF1 (Homo sapiens (Human), UniProt Q13422+Q96SW2)? 20 to 40%

For IKZF1 (Homo sapiens (Human), UniProt Q13422+Q96SW2), provide Dmax of O=C1CCC(N2Cc3cc(-c4cc(CN5CCCC5)c5ccn(C6CCC6)c5n4)ccc3C2=O)C(=O)N1 (centres unmarked) please. 20 to 40%

Look up Dmax with IKZF1 (Homo sapiens (Human), UniProt Q13422+Q96SW2) for this compound: O=C1CCC(N2Cc3cc(-c4cc(CN5CCC(F)CC5)c5cc[nH]c5n4)ccc3C2=O)C(=O)N1 (centres unmarked) 20 to 40%

Kindly state the measured Dmax obtained for Nc1nn(C2COC2)c2c(CN3CCCC3)cc(-c3ccc4c(c3)CN(C3CCC(=O)NC3=O)C4=O)nc12 (centres unmarked) with IKZF1 (Homo sapiens (Human), UniProt Q13422+Q96SW2). 20 to 40%

Query Dmax on IKZF1 (Homo sapiens (Human), UniProt Q13422+Q96SW2) for CC(c1cc(-c2ccc3c(c2)CN(C2CCC(=O)NC2=O)C3=O)nc2c1ccn2C)N1CCCC1 (centres unmarked) < 20%

Which Dmax is reported with IKZF1 (Homo sapiens (Human), UniProt Q13422+Q96SW2) for this entry: Nc1n[nH]c2c(CN3CCC(F)CC3)cc(-c3ccc4c(c3)CN(C3CCC(=O)NC3=O)C4=O)nc12 (centres unmarked) ? 20 to 40%

IKZF1 (Homo sapiens (Human), UniProt Q13422+Q96SW2) / Dmax / COCCOc1ccnc2c(CN3CCCC3)cc(-c3ccc4c(c3)CN(C3CCC(=O)NC3=O)C4=O)nc12 (centres unmarked) : value? < 20%

Fill in the recorded Dmax for this compound, with IKZF1 (Homo sapiens (Human), UniProt Q13422+Q96SW2) as test system: CC(C)Nc1n[nH]c2c(CN3CC4(CCOCC4)C3)cc(-c3ccc4c(c3F)CN(C3CCC(=O)NC3=O)C4=O)nc12 (centres unmarked) 40 to 60%

State its Dmax on IKZF1 (Homo sapiens (Human), UniProt Q13422+Q96SW2): O=C1CCC(N2Cc3cc(-c4cc(CN5CCCC5)c5ccn(C6CCCC6)c5n4)ccc3C2=O)C(=O)N1 (centres unmarked) < 20%

Lab note: need Dmax with IKZF1 (Homo sapiens (Human), UniProt Q13422+Q96SW2) for entry CCn1nc(N)c2nc(-c3ccc4c(c3)CN(C3CCC(=O)NC3=O)C4=O)cc(CN3CCCC3)c21 (centres unmarked) , please look it up. 20 to 40%

Request - read-out Dmax | tested on IKZF1 (Homo sapiens (Human), UniProt Q13422+Q96SW2) | compound O=C1CCC(N2Cc3cc(-c4nc5[nH]ccc5c(CN5CCCC5)c4Cl)ccc3C2=O)C(=O)N1 (centres unmarked) < 20%

Please tell me: Dmax of Cn1ccc2c(CN3CC4(CCOCC4)C3)cc(-c3ccc4c(c3)CN(C3CCC(=O)NC3=O)C4=O)nc21 (centres unmarked) , system IKZF1 (Homo sapiens (Human), UniProt Q13422+Q96SW2)? 20 to 40%

Look up Dmax with IKZF1 (Homo sapiens (Human), UniProt Q13422+Q96SW2) for this compound: O=C1CCC(N2Cc3cc(-c4cc(CN5CCCC5)c5nccc(OC6CC6)c5n4)ccc3C2=O)C(=O)N1 (centres unmarked) < 20%

For IKZF1 (Homo sapiens (Human), UniProt Q13422+Q96SW2), provide Dmax of O=C1CCC(N2Cc3cc(-c4cc(CN5CCC6(CC5)COC6)cc5cncn45)ccc3C2=O)C(=O)N1 (centres unmarked) please. < 20%

Observed Dmax on IKZF1 (Homo sapiens (Human), UniProt Q13422+Q96SW2) for O=C1CCC(N2Cc3cc(-c4cc(CN5CCCC5)c5ccn(C6CC(F)(F)C6)c5n4)ccc3C2=O)C(=O)N1 (centres unmarked) , please. 20 to 40%

Identify the measured Dmax of O=C1CCC(N2Cc3cc(-c4cc(CN5CCCC5)c5ncccc5n4)ccc3C2=O)C(=O)N1 (centres unmarked) for IKZF1 (Homo sapiens (Human), UniProt Q13422+Q96SW2). 20 to 40%

Give the reported Dmax for O=C1CCC(N2Cc3cc(-c4cc(CN5CCCC5)c5c(n4)CCC5)ccc3C2=O)C(=O)N1 (centres unmarked) (system: IKZF1 (Homo sapiens (Human), UniProt Q13422+Q96SW2)). 20 to 40%

Dmax of CC(C)Nc1n[nH]c2c(CN3CCC(F)C3)cc(-c3ccc4c(c3F)CN(C3CCC(=O)NC3=O)C4=O)nc12 (centres unmarked) on IKZF1 (Homo sapiens (Human), UniProt Q13422+Q96SW2)? < 20%

Kindly state the measured Dmax obtained for C[C@@H]1CC[C@@H](C)N1Cc1cc(-c2ccc3c(c2)CN(C2CCC(=O)NC2=O)C3=O)nc2c1ccn2C (some centres unmarked) with IKZF1 (Homo sapiens (Human), UniProt Q13422+Q96SW2). < 20%

Recall the recorded Dmax for Cc1cn(C2COC2)c2nc(-c3ccc4c(c3)CN(C3CCC(=O)NC3=O)C4=O)cc(CN3CCCC3)c12 (centres unmarked) with IKZF1 (Homo sapiens (Human), UniProt Q13422+Q96SW2) and state it. < 20%

Record lookup: for IKZF1 (Homo sapiens (Human), UniProt Q13422+Q96SW2), what Dmax belongs to Nc1n[nH]c2c(CN3CC4COCC4C3)cc(-c3ccc4c(c3)CN(C3CCC(=O)NC3=O)C4=O)nc12 (centres unmarked) ? < 20%
